# assayTarget: Gag-Pol polyprotein [588-1027]/[588-1147] (Human immunodeficiency virus 1, UniProt P04585)
# Construct: 588-1027; 588-1147
# protocolNotes: HIV-1 RT Assay
Recorded log10(IC50) values for a group of compounds are listed next.
A value of 2 here means IC50 of 100 in nM, since values are log10.

These recorded examples may help you get a feel for the data.
substanceSmiles	log10(IC50)
CC(C)c1s/c(=N\S(=O)(=O)c2cccc([N+](=O)[O-])c2)n(C)c1C(N)=O	4.59
CCn1c(C)c(C(C)(C)C)s/c1=N\S(=O)(=O)c1cccc([N+](=O)[O-])c1	3.78
CC(C)c1s/c(=N\S(=O)(=O)c2cccc([N+](=O)[O-])c2)n(C)c1C#N	2.79
CC(C)c1s/c(=N\S(=O)(=O)c2cccc([N+](=O)[O-])c2)n(C)c1C(F)(F)F	2.78
CC(C)c1cn(C)/c(=N/S(=O)(=O)c2cccc([N+](=O)[O-])c2)s1	2.78

[in] Please report log10(IC50) for the following compound: `CC(C)c1s/c(=N\S(=O)(=O)c2cccc([N+](=O)[O-])c2)n(C)c1Cl`
[out] 1.89

[in] Give reported log10(IC50) value for `C=Cc1s/c(=N\S(=O)(=O)c2cccc([N+](=O)[O-])c2)n(C)c1C`
[out] 2.18
